experiment: Exact solubility of Compound 1 Form A in selected solvent systems (1 day suspension, HPLC); format: physicochemical; conditions: aqueous with cosolvent or surfactant or cyclodextrin, thermodynamic from solid, 2-Propanol/NaOH aq 0.01M 1:3 v/v, 24° C.
READOUT_KIND: solubility at 1 day (µg/mL)

- CPD_SMILES: "Cc1nc(N)c2c(C(N)=O)cn([C@@H]3O[C@H](CO)[C@@H](O)[C@H]3O)c2n1"
  UNIT_SYMBOL: "µg/mL"
  MEASURED_RESULT: 5200

* * *

test: Approximate solubility of Compound 1 in various solvents (stepwise solvent addition); format: physicochemical; conditions: organic solvent or mixture, thermodynamic from solid; THF; RT; read-out: Solubility [S, mg/mL]

- CPD_SMILES: "Cc1nc(N)c2c(C(N)=O)cn([C@@H]3O[C@H](CO)[C@@H](O)[C@H]3O)c2n1"
  solubility: "< 1 mg/mL"
